system: OVCAR-5 ovarian; assay: NCI-60 one-dose screen, 48 h (100 = growth as untreated, 0 = no growth, -100 = all killed); conditions: 10 µM unless noted
Compounds without any hit were thinned out: in the full panel of roughly 83,000, 20% have a hit. The source made the active and inactive calls. How the source made its calls: active means growth percent below 10; inactive means the rest.
RECORDED_ENDPOINT: growth

// known answers, use as guide
compound=COCCOCCOCc1n(Cc2ccc3ccccc3c2)c2ccccc2[n+]1Cc1ccc2ccccc2c1 result="21.4% (inactive)"
compound=CCCNc1nc(C)[nH]c(=O)c1S result="113% (inactive)"

-- ask Dear colleague, I am looking for the recorded growth of the following compound: C=C1C(=O)O[C@H]2[C@H]1CC/C(C=Nc1c(N)cc(C(F)(F)F)cc1Br)=C\CC[C@@]1(C)O[C@@H]21
-- reply 42.8% (inactive)

-- ask I'd like to know its growth. The compound in question is CN(C)c1ccc(-c2ccc3[nH]c(=O)nc(-c4ccc(F)cc4)c3c2)cn1
-- reply 79.9% (inactive)

-- ask Would you kindly share the measured growth for O=C(CN1N=C(c2ccc(F)cc2)CCC1=O)Nc1nc2ccccc2s1 ?
-- reply 16.9% (inactive)

-- ask Reported growth, compound CN(C)C(CNc1oc(-c2cccc3ccccc23)nc1C#N)c1ccco1 (centres undefined) : ____
-- reply 94.6% (inactive)

-- ask What does the data say about its growth? Entry: Nn1c(SCC(=O)Nc2ccc(Cl)cc2)nnc1-c1cc(F)c(Cl)cc1Cl
-- reply 66.5% (inactive)

-- ask Report growth for Nc1cccc(C(=O)Nc2ccc3c(O)c(N=Nc4ccc(N=Nc5ccc(S(=O)(=O)O)cc5)cc4)c(S(=O)(=O)O)cc3c2)c1 please.
-- reply 109% (inactive)

-- ask If you can, please state the reported growth value of CCOC(=O)C(=Cc1c(-c2ccccc2)[nH]c2ccccc12)C(=O)OCC .
-- reply 98.3% (inactive)
